# STUDY SYSTEM: Cytochrome P450 2D6 (Homo sapiens) (UniProt P10635)
# Sequence (P10635 whole entry, looked up): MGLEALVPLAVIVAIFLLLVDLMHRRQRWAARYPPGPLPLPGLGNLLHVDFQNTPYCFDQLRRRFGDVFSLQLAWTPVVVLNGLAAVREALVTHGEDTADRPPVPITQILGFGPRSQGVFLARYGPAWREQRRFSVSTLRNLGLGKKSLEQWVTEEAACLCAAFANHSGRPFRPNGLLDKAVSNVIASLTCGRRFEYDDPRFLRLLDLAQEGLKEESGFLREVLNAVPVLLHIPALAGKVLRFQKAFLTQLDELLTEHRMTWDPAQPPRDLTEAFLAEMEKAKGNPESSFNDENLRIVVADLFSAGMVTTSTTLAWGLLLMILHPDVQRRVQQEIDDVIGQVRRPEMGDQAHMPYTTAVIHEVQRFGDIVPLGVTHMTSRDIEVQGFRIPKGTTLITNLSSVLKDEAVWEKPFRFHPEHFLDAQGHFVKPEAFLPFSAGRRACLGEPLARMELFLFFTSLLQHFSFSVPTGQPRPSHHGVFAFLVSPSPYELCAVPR
# ASSAY METHOD TEXT: Cytochrome panel assay with activity outcomes
# ASSAY SETUP: recombinant CYP, pro-luciferin dealkylation, luminescence, p450-cyp2d6; series mostly up to 57.1 µM
Out of some 16,000 compounds screened, about 2,600 (16%) were called active. Roughly 20% stayed inconclusive and do not appear here. Calls follow the shape of the dose curve; as a rule, active = well fitted curve in the direction sought with a large enough effect; inconclusive = small, poorly fitted or top-dose-only effect, or effect the other way; inactive = no such curve, though single readings can be large or run the other way. The sample as a whole holds a higher share of actives than the screen did.
Lab note: assign the record to one of Yes for active, No for inactive

Completed entries (count: 3):
CCCN1CCC[C@H](c2cccc(C#N)c2)C1    Yes
O=C(CNS(=O)(=O)c1ccc(Br)s1)N1CCC2(CC1)OCCO2    No
CN(C)C(=O)Oc1cc(OC(=O)N(C)C)cc([C@@H](O)CNC(C)(C)C)c1    Yes

Query: What outcome does the record of this test show for CCN1C[C@]2(COC)CC[C@H](O)[C@@]34[C@@H]5C[C@H]6[C@@H](OC)[C@H]5[C@](O)(C[C@@H]6OC)[C@@](O)([C@@H](OC)[C@H]23)[C@@H]14 ?
Response: No

Query: What outcome does the record of this test show for S=C=Nc1cccc(C2(N3CCCCC3)CCCCC2)c1 ?
Response: Yes

Query: Outcome logged for Cn1c(O)c(C(c2ccccn2)c2c(O)n(C)c(=S)[nH]c2=O)c(=O)[nH]c1=S in this assay:
Response: No

Query: Field: outcome | Entry: O=C1NC(=O)N(CCNc2ncc(C(F)(F)F)cc2Cl)C(=O)C1/C=N/OCc1c(F)cccc1Cl (stereo not given)
Response: No

Query: Recorded test call requested for Cc1ccc(N(C)C(=O)Oc2cccc3ccc(C)nc23)cc1
Response: No

Query: Recorded call for CC(C)(C)NC[C@H](O)c1cc(Cl)c(N)c(Cl)c1 ?
Response: No

Query: Hello, I am checking results. What call was entered for NCCCC[C@H](N[C@@H](CCc1ccccc1)C(=O)O)C(=O)N1CCC[C@H]1C(=O)O ?
Response: No

----------
Overview of reported activity, negative = inhibition across a group of compounds:
# STUDY SYSTEM: Cytochrome P450 2D6 (Homo sapiens) (UniProt P10635)
# ASSAY METHOD TEXT: Cytochrome panel assay with activity outcomes; as to activity, negative = inhibition: % is scaled to controls: 0 for no effect and ±100 for the full control effect
# ASSAY SETUP: recombinant CYP, pro-luciferin dealkylation, luminescence, p450-cyp2d6; series mostly up to 57.1 µM
The whole screen tested about 16,000 compounds, of which about 2,600 (16%) were called active. About 20% were inconclusive and are not listed. This excerpt belongs to a sample that is enriched for actives.

O=C(c1ccccc1)[C@H]1[C@H](c2ccccc2[N+](=O)[O-])N1C1CCCCC1 (some centres undefined)    -1.09% [at 11.4 µM] (inactive)

Turning now to a further record.
Query: // lookup activity, negative = inhibition | system=Cytochrome P450 2D6 (Homo sapiens) (UniProt P10635) | key= CC1=NN(c2ccc(S(=O)(=O)O)cc2C)C(=[OH+])[C@H]1N=Nc1cc(S(=O)(=O)O)ccc1C(=O)O.O.[Cr]
Response: -4.46% [at 11.4 µM] (inactive)

----------
# STUDY SYSTEM: Cytochrome P450 2D6 (Homo sapiens) (UniProt P10635)
# ASSAY METHOD TEXT: Cytochrome panel assay with activity outcomes; as to activity, negative = inhibition: % is scaled to controls: 0 for no effect and ±100 for the full control effect
# ASSAY SETUP: recombinant CYP, pro-luciferin dealkylation, luminescence, p450-cyp2d6; series mostly up to 57.1 µM
The campaign covered roughly 16,000 compounds. About 2,600 (16%) were called active. Inconclusive results (about 20%) are left out. The full list was thinned out, with actives kept by preference.
Entries annotated with measured activity, negative = inhibition

Query: For NS(=O)(=O)c1ccc(-c2ccc([As](=O)(O)O)cc2)cc1 , what is its reported activity, negative = inhibition?
Response: 16.2% [at 11.4 µM] (inactive)

Query: Look at this molecule and give its reported activity, negative = inhibition. CCSCC[C@H](N)C(=O)O
Response: 2.98% [at 11.4 µM] (inactive)
